# System: Trypanosoma brucei
# run description: Trypanosoma brucei 72 hour study
# Type: functional, organism-based
# Set-up: scale not given: in the data most compounds retested in dose-response had high values
# particulars: 30.3 µM; […]
The campaign covered roughly 66,000 compounds. About 960 (1.5%) showed an effect of 50% or more. Shown is part of a subset that was picked to be rich in strong results.
Each entry below carries its reported Percent Effect.
Expressed in %, but write only the number.

Cc1ccccc1Cc1nc(CSc2nnc(N)n2C)no1    30.54

Data request, read-out Percent Effect, for `CO[C@@H]1CCN(c2nnc(C)s2)C[C@@H]1Cc1cccc(C)c1.O=C(O)C(F)(F)F`
-8.568

The origin of these recorded values is ChEMBL document CHEMBL3988442.
